Biological target: hPPARγ (Homo sapiens)
Construct: corresponding to the DEF domains (structural elements of the promoter of the PPARs: D=hinge, EF=ligand fixation domain and AF2 fixation site); expressed in transfected cells; host or cells: COS-7 (monkey kidney fibroblasts)
Sequence (P37231 238-503 limits assumed): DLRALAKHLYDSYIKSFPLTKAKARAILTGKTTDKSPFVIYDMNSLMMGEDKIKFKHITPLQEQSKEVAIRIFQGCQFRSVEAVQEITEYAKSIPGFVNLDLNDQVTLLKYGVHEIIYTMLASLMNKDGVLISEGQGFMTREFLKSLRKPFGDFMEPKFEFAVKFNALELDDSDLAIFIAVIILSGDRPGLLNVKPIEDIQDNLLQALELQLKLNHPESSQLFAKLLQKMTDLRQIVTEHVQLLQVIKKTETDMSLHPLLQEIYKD
Test: Gal4-hPPARγ chimera transactivation (luciferase) in COS-7 cells
Format: cell-based
Conditions: luciferase, 24 hours, read-out: PPARγ EC50
propertyName: EC50 (µM)

Illustrative cases are given below, each with its answer.
>>> assayvalue("O=C(O)COc1ccc(OCc2ccc(-c3ccccc3)nc2Sc2ccccc2)cc1")
8.29
>>> assayvalue("COc1nc(-c2ccc(C(F)(F)F)cc2)ccc1COc1ccc(OCC(=O)O)cc1")
4.49
>>> assayvalue("COc1nc(-c2ccccc2)ccc1CNc1cccc(OC(C)(C)C(=O)O)c1")
6.93
>>> assayvalue("COc1nc(-c2ccccc2)c(Br)cc1CNc1ccc(SCC(=O)O)cc1")
8.43
>>> assayvalue("CCC(Nc1ccc(CCC(=O)O)cc1)c1ccc(-c2ccccc2)nc1OC (stereo not drawn)")
2.33
>>> assayvalue("COc1nc(-c2ccccc2)ccc1CNc1ccc(OC(C)C(=O)O)cc1 (stereo not drawn)")
3.72

(A) COc1ncc(-c2ccc(C(F)(F)F)cc2)cc1CNc1ccc(CCC(=O)O)cc1
(B) CC(C)Oc1nc(-c2ccccc2)ccc1CNc1ccc(CCC(=O)O)cc1
stdin: Choose between A and B : whose measured EC50 value is numerically larger? Identify your pick by its label.
stdout: B

----------
Biological target: hPPARδ (Homo sapiens)
Construct: corresponding to the DEF domains (structural elements of the promoter of the PPARs: D=hinge, EF=ligand fixation domain and AF2 fixation site)
Sequence (Q03181 211-439 limits assumed): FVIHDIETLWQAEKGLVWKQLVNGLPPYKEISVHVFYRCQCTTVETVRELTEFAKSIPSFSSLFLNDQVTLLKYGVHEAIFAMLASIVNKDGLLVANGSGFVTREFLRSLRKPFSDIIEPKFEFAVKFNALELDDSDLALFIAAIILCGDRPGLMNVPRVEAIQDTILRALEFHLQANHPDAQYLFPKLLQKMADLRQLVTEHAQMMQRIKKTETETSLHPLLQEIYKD
Experiment: Gal4-hPPARδ chimera transactivation (luciferase) in COS-7 cells
Details: COS-7 cells, Gal4-hPPARδ, luciferase, 24 hours; read-out: PPARδ EC50
propertyName: EC50 (nM)

>>> assayvalue("COc1nc(-c2ccc(C(F)(F)F)cc2)ccc1CNc1ccc(SC(C)(C)C(=O)O)cc1 [Cpd 22]")
1150

(1) COc1nc(-c2ccccc2)ccc1COc1ccc(OC(C)C(=O)O)cc1 (stereo not shown) [Cpd 3]
(2) CC(C)(C)Oc1nc(-c2ccccc2)ccc1CNc1ccc(OCC(=O)O)cc1 [Cpd 8]
(3) COc1ncc(-c2ccccc2)cc1CNc1ccc(SCC(=O)O)cc1 [Cpd 26]
stdin: I would appreciate it if you could sort these 3 compounds by EC50, starting from the smallest number. Could you list the labels in the order requested?
stdout: 1, 2, 3
(1: 1200 nM, 2: 2110 nM, 3: 31100 nM)

----------
Biological target: hPPARγ (Homo sapiens)
Construct: corresponding to the DEF domains (structural elements of the promoter of the PPARs: D=hinge, EF=ligand fixation domain and AF2 fixation site)
Assay: Gal4-hPPARγ chimera transactivation (luciferase) in COS-7 cells
Settings: luciferase, 24 hours, read-out: PPARγ EC50
pEC50: −log10 of the molar value.
propertyName: pEC50

Worked cases, pEC50 given:
>>> assayvalue("CC(Oc1ccc(NCc2ccc(-c3ccccc3)nc2OC(C)(C)C)cc1)C(=O)O (centres unmarked)")
4.98
>>> assayvalue("COc1nc(-c2ccccc2)ccc1CNc1ccc(C(CC(=O)O)c2ccccc2)cc1 (centres unmarked)")
5.36
>>> assayvalue("COc1nc(-c2ccccc2)ccc1CNc1ccc(SCC(=O)O)cc1")
5.29
>>> assayvalue("COc1nc(-c2ccccc2)ccc1COc1ccc(OCC(=O)O)cc1")
4.91
>>> assayvalue("COc1nc(-c2ccc(C(F)(F)F)cc2)ccc1COc1ccc(OC(C)(C)C(=O)O)cc1")
5.84

(1) COc1ncc(-c2ccc3ccccc3c2)cc1CNc1ccc(CCC(=O)O)cc1
(2) COc1nc(-c2ccccc2)ccc1CNc1cc(C)c(OCC(=O)O)c(C)c1
(3) COc1nc(-c2ccccc2)ccc1COc1ccc(OC(C)C(=O)O)cc1 (centres unmarked)
(4) COc1nc(-c2cccc(C(F)(F)F)c2)ccc1CNc1ccc(CCC(=O)O)cc1
(5) COc1nc(-c2ccccc2)c(-c2ccccc2)cc1CNc1ccc(SCC(=O)O)cc1
stdin: // ascending sort on recorded pEC50 # respond with the labels, arranged in the requested order
stdout: 5, 2, 3, 1, 4

(P) COc1nc(-c2ccccc2)ccc1CNc1ccc(SC(C(=O)O)c2ccccc2)cc1 (centres unmarked)
(Q) CCSc1nc(-c2ccccc2)ccc1CNc1ccc(CCC(=O)O)cc1
stdin: Which item exceeds the other in pEC50, P or Q ? Output the label that corresponds to your choice.
stdout: P
(P: 5.60, Q: 5.12)

(1) COc1cc(CCC(=O)O)ccc1NCc1ccc(-c2ccccc2)nc1OC
(2) COc1ncc(-c2cccc(C(F)(F)F)c2)cc1CNc1ccc(CCC(=O)O)cc1
stdin: Please indicate which entry, 1 or 2 , has the lower recorded pEC50 value. API: response body contains the label of the selected item.
stdout: 1
(1: 5.58, 2: 5.97)

(I) CCOc1nc(-c2ccccc2)ccc1CNc1ccc(CCC(=O)O)cc1
(II) COc1nc(-c2ccccc2)ccc1CSc1ccc(CCC(=O)O)cc1
(III) COc1nc(-c2ccccc2)ccc1CNc1ccc(OCC(=O)O)cc1
(IV) COc1nc(-c2ccccc2)ccc1CNc1ccc(CCC(=O)O)cc1
stdin: Exam item: list the entries in increasing order of pEC50. # answer = labels listed in requested order
stdout: III, II, I, IV

(a) COc1nc(-c2ccccc2)ccc1CNc1ccc(C(C)CC(=O)O)cc1 (centres unmarked)
(b) O=C(O)COc1ccc(OCc2ccc(-c3ccccc3)nc2OC2CCCCC2)cc1
(c) COc1nc(-c2ccc(C(F)(F)F)cc2)ccc1CNc1ccc(CCC(=O)O)cc1
stdin: Place the items in sequence of falling pEC50. Write the labels, ordered according to the request.
stdout: c, a, b
(c: 5.82, a: 5.62, b: 4.85)

(a) COc1nc(-c2ccc(C(F)(F)F)cc2)ccc1CNc1ccc(SCC(=O)O)cc1
(b) COc1nc(-c2ccccc2)ccc1CNc1ccc(SC(F)(F)C(=O)O)cc1
(c) COc1ncc(-c2ccccc2)cc1CNc1ccc(CCC(=O)O)cc1
(d) CC#CC(CC(=O)O)c1ccc(OCc2ccc(-c3ccccc3)nc2OC)cc1 (centres unmarked)
stdin: Thanks in advance: please rank these 4 entries by pEC50, highest to lowest. Answer by naming the labels in the order asked.
stdout: d, a, b, c

(a) COc1nc(OC)c(-c2ccccc2)cc1CNc1ccc(CCC(=O)O)cc1
(b) COc1nc(-c2ccc(-c3ccccc3)cc2)ccc1CNc1ccc(CCC(=O)O)cc1
(c) COc1nc(-c2ccc(C(F)(F)F)cc2)ccc1CNc1ccc(SC(C)(C)C(=O)O)cc1
stdin: # sort list by recorded pEC50, greatest to least Your reply should list the labels following the order given in the request.
stdout: c, b, a
(c: 5.98, b: 5.71, a: 5.02)

----------
Biological target: hPPARα (Homo sapiens)
Construct: corresponding to the DEF domains (structural elements of the promoter of the PPARs: D=hinge, EF=ligand fixation domain and AF2 fixation site)
Sequence (Q07869 239-466 limits assumed): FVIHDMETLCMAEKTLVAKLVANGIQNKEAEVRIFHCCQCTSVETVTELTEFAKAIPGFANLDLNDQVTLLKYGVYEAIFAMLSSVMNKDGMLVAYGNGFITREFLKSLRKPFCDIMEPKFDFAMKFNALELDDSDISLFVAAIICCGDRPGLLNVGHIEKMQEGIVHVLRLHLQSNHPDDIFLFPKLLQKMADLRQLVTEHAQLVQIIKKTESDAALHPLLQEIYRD
Assay: Gal4-hPPARα chimera transactivation (luciferase) in COS-7 cells
Details: COS-7 cells, Gal4-hPPARα, luciferase, 24 hours; read-out: PPARα EC50
propertyName: EC50 (nM)

>>> assayvalue("COc1nc(-c2ccc(-c3ccccc3)cc2)ccc1CNc1ccc(CCC(=O)O)cc1")
175
>>> assayvalue("CC(C)(C)Oc1nc(-c2ccccc2)ccc1COc1ccc(OC(C)(C)C(=O)O)cc1")
5430

(a) COc1nc(-c2ccccc2)ccc1CNc1ccc(SC(F)(F)C(=O)O)cc1
(b) COc1ncc(-c2ccc3ccccc3c2)cc1CNc1ccc(CCC(=O)O)cc1
stdin: Two entries are listed, a and b . Which one carries the higher EC50? Return value: the label identifying the chosen record.
stdout: a

----------
Target: hPPARγ (Homo sapiens)
Construct: corresponding to the DEF domains (structural elements of the promoter of the PPARs: D=hinge, EF=ligand fixation domain and AF2 fixation site); expressed in transfected cells; host or cells: COS-7 (monkey kidney fibroblasts)
Assay: Gal4-hPPARγ chimera transactivation (luciferase) in COS-7 cells
Format: cell-based
Conditions: relative to maximum activation obtained with rosiglitazone, 24 hours, read-out: PPARγ TOP % (maximum activation)
propertyName: Emax (%)

(1) CC(C)(C)Oc1nc(-c2ccccc2)ccc1CNc1ccc(OCC(=O)O)cc1
(2) COc1nc(-c2ccccc2)ccc1CNc1ccc(C(C)CC(=O)O)cc1 (centres unmarked)
(3) CCCCCCOc1nc(-c2ccccc2)ccc1COc1ccc(OCC(=O)O)cc1
stdin: In ascending order of recorded Emax, list the compounds from the set above. Kindly provide the labels arranged according to the requested ordering.
stdout: 1, 3, 2

(I) CCOc1nc(-c2ccccc2)ccc1CNc1ccc(CCC(=O)O)cc1
(II) CC(C)(C)Oc1nc(-c2ccccc2)ccc1COc1ccc(OC(C)(C)C(=O)O)cc1
(III) COc1nc(-c2ccccc2)c(-c2ccccc2)cc1CNc1ccc(SCC(=O)O)cc1
(IV) CC(Oc1ccc(NCc2ccc(-c3ccccc3)nc2OC(C)(C)C)cc1)C(=O)O (centres unmarked)
stdin: // sort entries: Emax, high to low Lab note: record answer as labels in requested order.
stdout: I, III, IV, II
(I: 70.9%, III: 45%, IV: 25.6%, II: 17.3%)

(1) COc1nc(-c2ccccc2)ccc1CNc1ccc(CCC(=O)O)cc1
(2) CC(C)(C)Oc1nc(-c2ccccc2)ccc1COc1ccc(OCC(=O)O)cc1
(3) COc1nc(OC)c(-c2ccccc2)cc1CNc1ccc(CCC(=O)O)cc1
stdin: # sort list by recorded Emax, greatest to least Labels, ranked as asked.
stdout: 1, 3, 2
(1: 87%, 3: 58.2%, 2: 20.6%)

(P) COc1nc(-c2ccc(C(F)(F)F)cc2)ccc1CNc1ccc(SCC(=O)O)cc1
(Q) COc1nc(-c2ccccc2)ccc1CNc1cccc(OC(C)(C)C(=O)O)c1
stdin: Record comparison, field Emax: mark the lower of P and Q . Identify your pick by its label.
stdout: Q
